Origin of values: the supplement of paper PMC8728848

# EXPERIMENTAL_SYSTEM: Gal4S(b1-4)GlcNAc
# METHOD_SUMMARY: glycan array binding signal (z-score within array); higher = stronger binding
# EXPERIMENTAL_PARAMETERS: glycan notation: IUPAC condensed, linker removed
The full list was thinned out, with the strongest signals kept by preference.
Please go through the items and note down their glycan array binding signal (z-score).
Please give the numeric answer without any surrounding text.

Q) Quickly give me recorded glycan array binding signal (z-score) for SSR2 (Sclerotium rolfsii) (protein) MVYKITVRVYQTNPDAFFHPVEKTVWKYANGGTWSITDDQHVLTMGGSGTSGTLRFHADNGESFTATFGVHNYKRWCDIVTNLAADETGMVINQQYYSQKNREEARERQLSNYQVKNAKGRNFQIVYTEAEGNDLHANLIIG
A) -0.297

Q) Give the reported glycan array binding signal (z-score) for this binder. CV-2L (Chromobacterium violaceum), Q7NX84 (protein) MAQQGVFTLPARINFGVTVLVNSAATQHVEIFVDNEPRAAFSGVGTGDNNLGTKVINSGSGNVRVQITANGRQSDLVSSQLVLANKLNLAVVGSEDGTDMDYNDSIVILNWPLG
A) -0.355
